Answer each item with its documented Ki.

Problem: Report Ki from Carbonic anhydrase 9 (Homo sapiens) testing of NS(=O)(=O)c1ccc(N2C(=O)CSC2c2ccccc2Br)cc1 (stereo not given)
Solution: 9.2 nM

Problem: Give Ki for NS(=O)(=O)c1ccc(N2C(=O)CSC2c2ccc(Cl)cc2)cc1 (stereo not given) tested on Carbonic anhydrase 9 (Homo sapiens).
Solution: 4.7 nM

Problem: Give reported Ki for NS(=O)(=O)c1ccc(N2C(=O)CSC2c2ccc(F)cc2)cc1 (stereo not given) (Carbonic anhydrase 9 (Homo sapiens))
Solution: 37.4 nM

Problem: Recall the reported Ki of NS(=O)(=O)c1ccc(N2C(=O)CSC2c2ccccc2F)cc1 (stereo not given) when tested on Carbonic anhydrase 9 (Homo sapiens).
Solution: 44.4 nM

Problem: Answer with Ki of NS(=O)(=O)c1ccc(N2C(=O)CSC2c2ccccc2Cl)cc1 (stereo not given) measured for Carbonic anhydrase 9 (Homo sapiens).
Solution: 7.7 nM

----------
# Tested on: MDA-MB-231
# test details: Cytotoxicity against human MDA-MB-231 cells after 48 hrs by MTT assay
# experimental conditions: MDA-MB-231, 48 h
experimental readout: IC50 (µg/mL)
Report the figure in µg/mL without appending any unit label.

Problem: Hello, please tell me recorded IC50 for this one: NS(=O)(=O)c1ccc(N2C(=O)CSC2c2cccc(F)c2)cc1 (centres undefined)
Solution: 21.4

Problem: Consider the molecule NS(=O)(=O)c1ccc(N2C(=O)CSC2c2ccc(F)cc2)cc1 (centres undefined) . State its measured IC50.
Solution: 22.7

Problem: Kindly indicate its recorded IC50. Item: NS(=O)(=O)c1ccc(N2C(=O)CSC2c2ccccc2)cc1 (centres undefined)
Solution: 23.9

Problem: Determine from records and report IC50 for NS(=O)(=O)c1ccc(N2C(=O)CSC2c2cccc(Br)c2)cc1 (centres undefined)
Solution: 12.4
